Attribution: the supplement of paper PMC3334620

Molecular target: Cad1 (UniProt P24813)
Sequence: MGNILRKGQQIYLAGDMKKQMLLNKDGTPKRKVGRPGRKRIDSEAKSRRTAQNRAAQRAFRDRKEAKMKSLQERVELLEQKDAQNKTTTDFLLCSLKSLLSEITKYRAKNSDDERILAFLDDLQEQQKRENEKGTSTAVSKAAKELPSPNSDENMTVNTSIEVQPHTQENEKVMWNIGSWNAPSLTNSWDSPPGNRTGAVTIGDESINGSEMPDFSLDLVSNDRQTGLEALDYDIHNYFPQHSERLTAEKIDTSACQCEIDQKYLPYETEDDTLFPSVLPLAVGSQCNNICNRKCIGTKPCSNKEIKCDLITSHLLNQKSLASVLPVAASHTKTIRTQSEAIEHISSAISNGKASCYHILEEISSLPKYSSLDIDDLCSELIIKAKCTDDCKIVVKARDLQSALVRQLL
Assay: PBM E-score (8-mer binding enrichment) (E-score (-0.5 to 0.5)); higher = stronger / more preferred TF binding
Conditions: protein concentration: 100 nM; construct: GST-full length
In all, about 33,000 sequences were measured (“E-score (-0.5 to 0.5)”: median about -0.0014, highest 2% from about 0.25 on). Only a selection was taken, and the highest values are over-represented in it overall.
For each of the sequences below, state its PBM E-score.
Field format: numeric only.

Entry AGACCGGA ; PBM E-score = -0.062

Recorded result, CTATGATA , PBM E-score: 0.0824

Record ATATGATA . Reported PBM E-score: 0.285

PBM E-score recorded for this sequence, CGTCCGAA , is 0.1

GET /value?item= ACGCTTTA &field=PBM E-score returns 0.0919

# PBM E-score of TGTCCGAA = 0.266

# PBM E-score (sequence: CTAGAGAC ) is -0.243

// PBM E-score value for AAACGGAA : 0.266

Recorded result, GTATCTTA , PBM E-score: 0.287

Documented PBM E-score of GTGGGTGA : 0.0388

get_value(item= AGGCCAAT , readout=PBM E-score) returns -0.0024

PBM E-score measured on CCTACCGC = -0.0896

GET /value?item= TCGGTACA &field=PBM E-score returns -0.0456

Given item CGCCAACA , the value recorded as its PBM E-score is 0.157

ATGATATA yielded PBM E-score of -0.027

Field PBM E-score (entry CGCACTAA ) reads 0.155

// CACCATCA : PBM E-score value = 0.0657

# PBM E-score of ATAACAAT = 0.0624

// PBM E-score value for ATGATATG : 0.29

Entry GTATCTGA — recorded PBM E-score = 0.0184

Record ATAAACCC . Reported PBM E-score: 0.0626

The reported PBM E-score of the sequence ATAACAAA was 0.312
